assay: Permeability of the compound by PAMPA; format: physicochemical; settings: read-out: permeability

{"columns": ["mol", "Papp [×10⁻⁶ cm/s]"],
 "data": [
  ["Br.CN(C)Cc1cc2c([nH]c(=O)c3cccc(O)c32)s1", 4.6]
]}

###

assay: Half life in human liver microsomes; format: ADME

{"columns": ["mol", "quantityUnit", "half-life"],
 "data": [
  ["Br.CN(C)Cc1cc2c([nH]c(=O)c3cccc(O)c32)s1", "min", 30]
]}

###

assay: Fraction unbound in Sprague-Dawley rat brain at 10 mg/kg, iv; assay type: ADME, organism-based; set-up: dose 10 mg/kg, route intravenous

{"columns": ["mol", "fraction unbound"],
 "data": [
  ["Br.CN(C)Cc1cc2c([nH]c(=O)c3cccc(O)c32)s1", 0.13]
]}

###

assay: Half life in rat liver microsomes; type: ADME
propertyName: half-life (min)

{"columns": ["mol", "propertyName", "obsValue"],
 "data": [
  ["Br.CN(C)Cc1cc2c([nH]c(=O)c3cccc(O)c32)s1", "half-life", 3]
]}

###

tested on: Rattus norvegicus; test: Clearance in Sprague-Dawley rat at 10 mg/kg, iv; format: ADME, organism-based; design: dose 10 mg/kg, route intravenous; conditions: in vivo

{"columns": ["mol", "testedOn", "clearance"],
 "data": [
  ["Br.CN(C)Cc1cc2c([nH]c(=O)c3cccc(O)c32)s1", "Rattus norvegicus", "69 mL/min/kg"]
]}
